assayed-system: Voltage-dependent T-type calcium channel subunit alpha-1H (Homo sapiens);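 note: channel activity triggered by adding a high calcium stimulation buffer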
Sequence (O95180 whole entry): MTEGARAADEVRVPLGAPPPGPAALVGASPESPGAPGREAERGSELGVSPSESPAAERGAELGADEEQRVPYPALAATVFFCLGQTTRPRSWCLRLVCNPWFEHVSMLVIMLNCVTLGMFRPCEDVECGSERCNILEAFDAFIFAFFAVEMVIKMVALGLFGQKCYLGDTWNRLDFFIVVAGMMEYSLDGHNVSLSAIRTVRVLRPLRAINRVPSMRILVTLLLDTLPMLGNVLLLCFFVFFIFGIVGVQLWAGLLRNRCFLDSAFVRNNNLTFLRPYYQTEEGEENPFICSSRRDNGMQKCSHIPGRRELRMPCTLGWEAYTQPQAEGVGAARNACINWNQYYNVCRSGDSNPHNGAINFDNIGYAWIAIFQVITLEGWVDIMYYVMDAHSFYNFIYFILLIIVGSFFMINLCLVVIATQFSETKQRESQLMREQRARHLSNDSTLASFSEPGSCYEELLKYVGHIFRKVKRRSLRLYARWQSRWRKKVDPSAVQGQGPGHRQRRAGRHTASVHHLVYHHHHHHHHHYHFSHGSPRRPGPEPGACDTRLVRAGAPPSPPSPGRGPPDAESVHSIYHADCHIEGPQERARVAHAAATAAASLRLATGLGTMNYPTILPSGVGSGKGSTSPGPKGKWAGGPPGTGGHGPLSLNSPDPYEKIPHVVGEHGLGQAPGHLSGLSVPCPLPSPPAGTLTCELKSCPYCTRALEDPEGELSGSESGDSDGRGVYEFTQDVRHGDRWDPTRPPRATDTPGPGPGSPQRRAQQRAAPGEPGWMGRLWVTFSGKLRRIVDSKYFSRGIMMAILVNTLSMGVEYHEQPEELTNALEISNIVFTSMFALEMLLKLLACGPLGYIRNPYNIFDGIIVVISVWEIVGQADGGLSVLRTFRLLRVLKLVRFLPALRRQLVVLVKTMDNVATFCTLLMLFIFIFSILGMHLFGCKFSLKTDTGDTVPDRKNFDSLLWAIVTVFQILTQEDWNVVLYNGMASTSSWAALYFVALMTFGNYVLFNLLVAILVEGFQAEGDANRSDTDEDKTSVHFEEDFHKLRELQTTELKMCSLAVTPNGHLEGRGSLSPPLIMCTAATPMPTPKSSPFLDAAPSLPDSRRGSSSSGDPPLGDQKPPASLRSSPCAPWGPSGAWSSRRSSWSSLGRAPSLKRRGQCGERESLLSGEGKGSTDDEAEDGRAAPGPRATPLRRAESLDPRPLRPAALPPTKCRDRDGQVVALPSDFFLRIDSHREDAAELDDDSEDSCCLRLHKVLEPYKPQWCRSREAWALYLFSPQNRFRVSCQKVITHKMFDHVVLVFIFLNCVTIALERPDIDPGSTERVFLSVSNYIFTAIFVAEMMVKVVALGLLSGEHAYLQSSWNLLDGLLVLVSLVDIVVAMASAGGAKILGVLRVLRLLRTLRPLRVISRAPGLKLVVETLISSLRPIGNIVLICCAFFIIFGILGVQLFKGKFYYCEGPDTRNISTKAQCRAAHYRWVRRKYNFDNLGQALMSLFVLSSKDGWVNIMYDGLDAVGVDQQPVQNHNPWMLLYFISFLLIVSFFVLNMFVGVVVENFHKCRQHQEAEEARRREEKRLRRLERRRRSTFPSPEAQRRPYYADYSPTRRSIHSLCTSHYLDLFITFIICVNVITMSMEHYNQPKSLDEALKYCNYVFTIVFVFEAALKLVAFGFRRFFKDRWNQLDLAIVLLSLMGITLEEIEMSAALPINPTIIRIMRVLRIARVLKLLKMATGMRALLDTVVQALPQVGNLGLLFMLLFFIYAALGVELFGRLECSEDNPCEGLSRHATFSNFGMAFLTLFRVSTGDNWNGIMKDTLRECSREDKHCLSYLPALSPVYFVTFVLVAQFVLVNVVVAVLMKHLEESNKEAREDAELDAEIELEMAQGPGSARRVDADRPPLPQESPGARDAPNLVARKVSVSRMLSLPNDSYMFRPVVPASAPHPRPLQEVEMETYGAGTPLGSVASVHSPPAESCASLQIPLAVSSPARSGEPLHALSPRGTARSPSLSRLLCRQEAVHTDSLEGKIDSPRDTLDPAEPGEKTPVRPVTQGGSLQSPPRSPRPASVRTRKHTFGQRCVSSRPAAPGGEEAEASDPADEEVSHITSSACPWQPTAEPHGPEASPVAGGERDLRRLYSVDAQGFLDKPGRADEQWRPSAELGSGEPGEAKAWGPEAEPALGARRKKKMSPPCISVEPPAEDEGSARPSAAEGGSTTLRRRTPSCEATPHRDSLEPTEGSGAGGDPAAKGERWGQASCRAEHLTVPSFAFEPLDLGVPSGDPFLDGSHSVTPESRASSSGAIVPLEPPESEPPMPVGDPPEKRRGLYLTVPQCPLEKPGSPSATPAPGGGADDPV
Format: functional
The source made the active and inactive calls.
Give EC50 for every item shown.

## Input What value of EC50 has been reported for the following molecule? CCOC(=O)Cc1csc(NC(=O)COc2ccc3ccccc3c2)n1
## Output 2.56 µM (active)

## Input Item under review: Clc1ccc(CN(CC2CCCO2)C(c2cccs2)c2nnnn2C2CCCC2)cc1 (stereo not given) . Reported EC50?
## Output 6.56 µM (active)

## Input What measured EC50 goes with O=S(=O)(c1ccc(Cl)cc1)N1CCCC1c1nc2ccccc2s1 (stereo not given) ?
## Output 6.61 µM (active)

## Input Field request: EC50 | item: Cc1ccc(S(=O)(=O)c2c(C)cc(C)nc2Oc2cccc(C(F)(F)F)c2)cc1
## Output 7.06 µM (active)

## Input Report EC50 for CCN(CC)S(=O)(=O)c1cccc(-c2nnc(SCCOc3ccccc3C)o2)c1 please.
## Output 9.91 µM (active)
